Target: KMT9 (Homo sapiens, UniProt Q9Y5N5)
Sequence (Q9Y5N5 whole entry): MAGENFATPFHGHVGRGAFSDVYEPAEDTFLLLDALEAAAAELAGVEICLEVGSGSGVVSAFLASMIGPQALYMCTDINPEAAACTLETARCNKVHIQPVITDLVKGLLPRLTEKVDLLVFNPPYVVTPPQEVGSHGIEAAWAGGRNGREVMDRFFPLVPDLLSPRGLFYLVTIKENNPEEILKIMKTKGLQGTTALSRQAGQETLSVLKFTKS
Sequence (Q9UI30 1-120 isoform Q9UI30-2 partner): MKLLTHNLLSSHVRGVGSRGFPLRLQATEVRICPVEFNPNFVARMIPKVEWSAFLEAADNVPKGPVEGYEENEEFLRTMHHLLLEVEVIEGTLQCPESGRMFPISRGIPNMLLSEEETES
Test: Microscale thermophoresis (MST) KMT9 binding
Details: His-tag labelled KMT9 20 nM; read-out: MST (Kd)
property.measured: Kd

In the examples that follow, each entry is paired with its recorded Kd.
INSERT INTO measurements (compound, property_measured, assay_value) VALUES
  ('Nc1nc(Cl)nc2c1c(-c1nccs1)cn2[C@@H]1CC(CN(CCCNCCc2ccc(F)cc2)c2cn[nH]c2)[C@@H](O)[C@H]1O (single isomer, unassigned) [Compound 543]', 'Kd', '≤ 10 nM'),
  ('Nc1nc(Cl)nc2c1c(Br)cn2[C@@H]1C[C@H](c2cccc(CN3CCC3)c2)[C@@H](O)[C@H]1O [Compound 673]', 'Kd', '≤ 10 nM'),
  ('CN(CCCNCCc1ccc(F)cc1)C[C@H]1C[C@@H](n2cc(-c3nc(Cc4ccccc4)cs3)c3c(N)nc(Cl)nc32)[C@H](O)[C@@H]1O [Compound 647]', 'Kd', '10 to 100 nM'),
  ('NCc1cccc([C@H]2C[C@@H](n3ccc4c(N)nc(Cl)nc43)[C@H](O)[C@@H]2O)c1 [Compound 660]', 'Kd', '≤ 10 nM'),
  ('COc1cc(Br)cc([C@H]2C[C@@H](n3ccc4c(N)nc(Cl)nc43)[C@H](O)[C@@H]2O)c1 [Compound 666]', 'Kd', '10 to 100 nM'),
  ('COc1cccc([C@H]2C[C@@H](n3cc(-c4ccn(C)n4)c4c(N)nc(Cl)nc43)[C@H](O)[C@@H]2O)c1 [Compound 671]', 'Kd', '10 to 100 nM');

The value of Kd measured for the compound Nc1nc(Cl)nc2c1ccn2[C@@H]1C[C@H](c2ccc(=O)[nH]c2)[C@@H](O)[C@H]1O [Compound 590] turned out to be 100 to 1000 nM

The value of Kd measured for the compound COc1cc([C@H]2C[C@@H](n3ccc4c(N)nc(Cl)nc43)[C@H](O)[C@@H]2O)ccn1 [Compound 663] turned out to be 10 to 100 nM

This collection of values is drawn from patent US20250188110A1.
